# protocol.description: Bioavailability studies (pharmacokinetics after oral and intraarterial administration)
# Format: in vivo, rat
# measurement.conditions: Wistar (Crl:WI), rat, plasma; male Wistar rats, oral 3 mg/kg, hydrochloride salt, Mean ± SD; N = 5

| compound | quantity.unit | AUC(0-t) |
| --- | --- | --- |
| NCc1c(-c2ccc(Cl)cc2Cl)ncn1Cc1cccnc1 [Example 121b] | ng·h/mL | 230 |
| NCc1c(-c2ccc(Cl)cc2Cl)ncn1Cc1ccccn1 [Example 39b] | ng·h/mL | 140 |
| NCc1c(-c2ccc(Cl)cc2Cl)ncn1Cc1ccsc1 [Example 130b] | ng·h/mL | 1270 |
| NCc1c(-c2ccc(Cl)cc2Cl)ncn1Cc1ccccc1 [Example 24b] | ng·h/mL | 390 |
